- Test system: K-562 leukemia
- ASSAY COMMENT: NCI-60 one-dose screen, 48 h (100 = growth as untreated, 0 = no growth, -100 = all killed)
- TEST CONDITIONS: 10 µM unless noted
- Experimental: Cells are grown in 96 well plates and exposed to the test compound for 48 hours. Compounds are tested at a single concentration, which is 10^-5 M for most compounds. The reported endpoint is percent growth (GI% or GIPRCNT), where numbers from 0 - 100% represent growth inhibition, and numbers from -100% - 0 represent cell death. For example, a value of 40 represents 60% growth inhibition. A value of 0 means no net growth occurred over the course of the experiment. […]
The panel holds about 83,000 compounds, 20% with a hit somewhere; the sample as a whole holds those more often.
ENDPOINT LABEL: growth (%)
# unit: % | format: bare number

Example entries begin here.
COc1cc(C2=NN(C=O)C(c3cccc(Nc4ccnc5cc(C(F)(F)F)ccc45)c3)C2)cc(OC)c1OC (centres undefined) | 37.8
CCc1c(C(=O)N[C@@H](C(=O)OCc2ccccc2)C(C)O)[nH]c2ccc(Cl)cc12 (some centres undefined) | 104
COc1ccc(-c2nnc(N3CCN(C(=O)CN4CCN(c5ccccc5)CC4)CC3)nc2-c2ccc(OC)cc2)cc1 | 4.73

I am curious: what growth value has been reported for COc1cc2c(Nc3ccc(NC(=O)Nc4ccc(Cl)c(C(F)(F)F)c4)c(Cl)c3)ncnc2cc1OCCCN1CCN(C)CC1 ?
-61

---

- Tested on: HCT-15 colon
- ASSAY COMMENT: NCI-60 one-dose screen, 48 h (100 = growth as untreated, 0 = no growth, -100 = all killed)
- TEST CONDITIONS: 10 µM unless noted
About 83,000 compounds went through this panel and 20% of them were active in at least one assay; those are over-represented in the sample as a whole. Calls of active or inactive are those of the source. Rule for the calls: active = growth percent below 10; inactive = the rest.
ENDPOINT LABEL: growth

C#CC[C@@H]1C[C@]2(C)[C@H]3CC[C@@H]4[C@H]5[C@H](C(=C)C)CC[C@]5(C(=O)O)CC[C@@]4(C)[C@]3(C)CC[C@H]2C(C)(C)[C@H]1O | 32% (inactive)

Tell me the measured growth of CC1(c2ccccc2Cl)NC(=O)NC1=O (configuration not stated) , please.
99.2% (inactive)

Return reported growth; argument: CCOC(=O)c1cnn(-c2nc(-c3ccc(F)cc3)c(C#N)c(N3CCOCC3)n2)c1N
101% (inactive)

Name the recorded growth for Cc1cc(C)nc(NS(=O)(=O)c2ccc(Nc3ccc4c5c(n(CCCN(C)C)c(=O)c4c3)-c3ccccc3C5=O)cc2)n1 .
90.3% (inactive)

Could you tell me which growth is on file for O=[N+]([O-])c1cccc(CN(Cc2cccc([N+](=O)[O-])c2O)c2ccccc2)c1O ?
69.4% (inactive)

What does the record list as growth for CC(=O)Oc1c2c(nc3c1c1ccccc1n3Cc1ccccc1)-c1ccccc1C2 ?
84.9% (inactive)

For the compound C#Cc1ccccc1NC(=O)c1sc2nc3c(cc2c1N)CCCCCC3 , what growth is on record?
70.2% (inactive)

---

- System: HCT-15 colon
- ASSAY COMMENT: NCI-60 one-dose screen, 48 h (100 = growth as untreated, 0 = no growth, -100 = all killed)
- TEST CONDITIONS: 10 µM unless noted
This is part of a sample that, as a whole, favours compounds with a hit. Of some 83,000 tested, about 20% had one in any assay.
Listed below: growth values for each entry.
Numbers only; they are read as %.

Study these solved cases before continuing.
CN(C)C(CNc1oc(-c2cccc3ccccc23)nc1C#N)c1ccco1 (stereo not given) | 79.8
Cc1[nH]c(N=Nc2ccccc2)nc1N=Nc1ccccc1 | 22.8
CCOCCc1c(O)nc(SC)[nH]c1=O | 98.2

Value lookup for growth; key = CCCCCCN1C(=O)CN=C1Nc1ccc2cc3ccc(NC4=NCC(=O)N4CCCCCC)cc3nc2c1
49

Look up growth for this molecule: CCOC(=O)c1c(C)nc2c(c1N)/C(=C/c1ccccn1)C(=O)N2Cc1ccccc1
-58.9

---

- Tested on: RXF 393 renal
- ASSAY COMMENT: NCI-60 one-dose screen, 48 h (100 = growth as untreated, 0 = no growth, -100 = all killed)
- TEST CONDITIONS: 10 µM unless noted
This is part of a sample that, as a whole, favours compounds with a hit. Of some 83,000 tested, about 20% had one in any assay.
ENDPOINT LABEL: growth (%)
Numbers only; they are read as %.

Cc1nc2sc(C(=O)Nc3ccccc3Cl)c(N)c2cc1C(C)O (centres undefined) | 92.8
CCOC(=O)NCCc1nc2c([nH]1)c(=O)n(C)c(=O)n2C | 113
COc1cc(NCC(=O)Nc2cc(Nc3ccc(C)cc3)ncn2)c(Cl)c(OC)c1Cl | 118
Cc1ccc2nc3nc4ccc[nH]c4cc3c2c1 | 99.6

For RXF 393 renal, provide growth of N#Cc1c(-c2ccc(F)cc2)nc(N/N=C/c2c[nH]c3ccccc23)nc1N1CCOCC1 please.
-34.2

Form entry - test system: RXF 393 renal; read-out: growth; compound: O=C(CSC(=S)N1CCCCC1)Nc1ccccc1
110

Lab note: need growth with RXF 393 renal for entry C/C(=N\NC(=O)c1ccncc1)c1ccc(N)cc1 , please look it up.
106

What measured growth is associated with COc1cc(-c2cn(-c3ccc(Cl)c(Cl)c3)c(=O)[nH]2)cc(OC)c1OC on RXF 393 renal?
86.4

Item Cc1cc(C)cc(Nc2nccc(-c3c(-c4ccc(F)cc4)ncn3C3CCNCC3)n2)c1 with RXF 393 renal - growth?
18.3

---

- Tested on: UACC-62 melanoma
- ASSAY COMMENT: NCI-60 one-dose screen, 48 h (100 = growth as untreated, 0 = no growth, -100 = all killed)
- TEST CONDITIONS: 10 µM unless noted
The panel holds about 83,000 compounds, 20% with a hit somewhere; the sample as a whole holds those more often.
Recorded measurements of growth, one per entry
Quick note: give the figure in %, leave out the unit.

COc1cccc(NC(=O)Nc2ccc(Oc3ncnc4[nH]c(C)c(C)c34)cc2)c1 | 74.2
FC(F)(F)c1ccc2c(Nc3cccc(C4CC(c5ccccc5)=NN4c4ccc(Cl)cc4)c3)ccnc2c1 (stereo unspecified) | 49.4
CCCn1c2cc(OCc3cn(-c4ccc(Cl)cc4)nn3)ccc2c2ccnc(C)c21 | 74.9
S=C(Nc1ccc(Cl)cc1)c1ccccn1 | 82.5
O=C(CCl)N1CCCc2ccccc21 | 94.3

Now for a further molecule.
Look up growth: CN1CCN(S(=O)(=O)O[C@@H]2C(=O)N(c3cc4c5ccccc5ccc4c4ccccc34)[C@H]2c2ccc(F)cn2)CC1
86.5

---

- System: SNB-75 CNS
- ASSAY COMMENT: NCI-60 one-dose screen, 48 h
- TEST CONDITIONS: 10 µM unless noted
This is part of a sample that, as a whole, favours compounds with a hit. Of some 83,000 tested, about 20% had one in any assay. Activity calls are given as the source filed them. Rule for the calls: active = growth percent below 10; inactive = the rest.
Please state which outcome applies, choosing from yes (1) for active, no (0) for inactive

Answered cases to consult:
COc1ccc2[nH]c3nc4cnccc4cc3c2c1 | no (0)
Nc1n[nH]c2cccc(C#Cc3cccc(NC(=O)c4cc(N5CCOCC5)cc(C(F)(F)F)c4)c3)c12 | no (0)
COc1ccc(-c2[nH]c3ccccc3c2C=C(C#N)C#N)cc1 | yes (1)
O=C(O)c1cn(C2CC2)c2cc(N3CCN(Cc4nnc(Nc5ccccc5)o4)CC3)c(F)cc2c1=O | no (0)
C=C(C)[C@@H]1CC[C@]2(C(=O)O)CC[C@]3(C)[C@H](CC[C@@H]4[C@@]5(C)C[C@@H](CC#Cc6ccccc6)C(=O)C(C)(C)[C@@H]5CC[C@]43C)[C@@H]12 | no (0)
NC[C@@H]1CCN(c2cc3c(cc2F)c(=O)n(N)c(=O)n3Cc2ccc(-c3ccccc3)cc2)C1 | no (0)
COc1ccc(/C=C/C(=O)c2ccc(NC(=O)CSc3nnc(-c4ccc(OC)c(OC)c4)n3-c3ccccc3)cc2)cc1 | no (0)
Cc1cccc(NC(=O)c2sc3nc4c(cc3c2N)CN(Cc2ccccc2)CC4)c1C | no (0)
COc1cc(C2=NN(C=O)C(c3cccc(Nc4ccnc5cc(C(F)(F)F)ccc45)c3)C2)cc(OC)c1OC (stereo not given) | no (0)
O=C(O)c1ccc(-n2cc(/C=N/Nc3ccc(Cl)cc3Cl)c(-c3ccccc3)n2)cc1 | no (0)

What call does the record list for CCCCCCC/C=C/[C@H]1O[C@]23C(=O)C[C@@]4(C[C@@H](OC5OC(CO)C(O)C(O)C5O)C[C@@H]4[C@H]2C=C1C)OC3=O (stereo not given in full) ?
no (0)

Which outcome did this test record for the compound Cc1nc2sc(C(=O)Nc3ccccc3Cl)c(N)c2cc1C(C)O (stereo not given) ?
no (0)
